Values were extracted from ChEMBL document CHEMBL1671838.

Test: AUC in Sprague-Dawley rat plasma at 5 mg/kg, po after 4 hrs
Assay type: ADME, organism-based
Set-up: time < 4 hr, dose 5 mg/kg, route oral
READOUT_KIND: AUC at 4 h (µM·h)

INSERT INTO assay_data (structure_notation, measurement_units, measurement) VALUES
  ('C=C[C@@H]1C[C@]1(NC(=O)[C@@H]1C[C@@H]2CN1C(=O)[C@H](C(C)(C)C)NC(=O)OCCCCCc1cc(OC(F)(F)F)c3ccnc(c3c1)O2)C(=O)NS(=O)(=O)C1CC1', 'µM·h', 1.6),
  ('C=C[C@@H]1C[C@]1(NC(=O)[C@@H]1C[C@@H]2CN1C(=O)[C@H](C1CCCC1)NC(=O)OCC(C)(C)CCCc1ccc3ccnc(c3c1)O2)C(=O)NS(=O)(=O)C1CC1', 'µM·h', 0.18),
  ('C=C[C@@H]1C[C@]1(NC(=O)[C@@H]1C[C@@H]2CN1C(=O)[C@H](C1CCOCC1)NC(=O)OCCCCCc1ccc3ccnc(c3c1)O2)C(=O)NS(=O)(=O)C1CC1', 'µM·h', 0.8),
  ('C=C[C@@H]1C[C@]1(NC(=O)[C@@H]1C[C@@H]2CN1C(=O)[C@H](C(C)(C)C)NC(=O)OCCCCCc1cc(OCC)c3ccnc(c3c1)O2)C(=O)NS(=O)(=O)C1CC1', 'µM·h', 6.9),
  ('C=C[C@@H]1C[C@]1(NC(=O)[C@@H]1C[C@@H]2CN1C(=O)[C@H](c1c[nH]c3ccccc13)NC(=O)OCCC/C=C/c1ccc3ccnc(c3c1)O2)C(=O)NS(=O)(=O)C1CC1', 'µM·h', 0.07),
  ('C=C[C@@H]1C[C@]1(NC(=O)[C@@H]1C[C@@H]2CN1C(=O)[C@H](C(C)(C)C)NC(=O)OCCCCCc1ccc3ccnc(c3c1)O2)C(=O)NS(=O)(=O)C1CC1', 'µM·h', 0.27),
  ('C=C[C@@H]1C[C@]1(NC(=O)[C@@H]1C[C@@H]2CN1C(=O)[C@H](C(C)(C)C)NC(=O)OCCCCCc1cc(Br)c3ccnc(c3c1)O2)C(=O)NS(=O)(=O)C1CC1', 'µM·h', 0.28),
  ('C=C[C@@H]1C[C@]1(NC(=O)[C@@H]1C[C@@H]2CN1C(=O)[C@H](C(C)(C)C)NC(=O)OCCC/C=C/c1ccc3ccnc(c3c1)O2)C(=O)NS(=O)(=O)C1CC1', 'µM·h', 0.36);
